Source listed as the supplement of paper PMC7125110.

B1: glmS ribozyme (parent)
chain: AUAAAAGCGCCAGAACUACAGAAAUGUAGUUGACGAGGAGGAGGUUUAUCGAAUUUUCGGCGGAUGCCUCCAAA

# Variants of: B1
# Method notes: self-cleavage kobs at 40 uM GlcN6P; higher = faster cleavage; RNA array
# Test conditions: with glucosamine-6-phosphate
Variants at the floor of the assay were thinned out.
The variants listed here are annotated with their self-cleavage kobs at 40 uM GlcN6P.

// solved cases for self-cleavage kobs at 40 uM GlcN6P follow
U45A G59A: < 1e-05 s⁻¹
C8G C10U: < 1e-05 s⁻¹
G40C C61G: < 1e-05 s⁻¹

Please give the measured self-cleavage kobs at 40 uM GlcN6P for this variant: U56A G62U
< 1e-05 s⁻¹

Another: C11U A48U G51U
< 1e-05 s⁻¹

Another: U45C A53U
4.26e-05 s⁻¹

Another: A53U U54C
0.000577 s⁻¹

Another: G32U A33C U45G U65A
< 1e-05 s⁻¹

Another: G37A U57G
< 1e-05 s⁻¹

Another: U47A C50A U54A
< 1e-05 s⁻¹

Another: G9A C34G
< 1e-05 s⁻¹
